Attribution: PubChem BioAssay AID488902

# Test system: wild-type MEF caspase activation, Caspase-Glo luminescence, 3 h
# assayNotes: apoptosis induction in WT mouse fibroblasts – cell-based, wild-type MEF, Caspase-Glo luminescence, dry powder, counter-screen for A1 (Bcl2-A1) inhibitor project, dose response (AID 488902)
Activity calls are given as the source filed them.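 How the source made its calls: active means rising caspase curve whose AC50 is at most ten times the top dose tested; inconclusive means flat fit between 30 and 70%, or a poor fit; inactive means the rest.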
Classes used: active, inactive

COc1ccc(N(C(=O)CCl)C(C(=O)NCCc2ccccc2)c2cccs2)cc1Cl (stereo not given)
active
Cc1cccc(NC(=O)/C(C#N)=C/c2cn(CC(=O)NCc3ccco3)c3ccccc23)c1
active
COc1cc(CN2CCN(c3cc(C)ccc3C)CC2)ccc1O
inactive
CCc1cc2c(=O)c(-c3cnn(-c4ccccc4)c3)c(C)oc2cc1OCC(=O)Nc1cccc(C)c1
active
Cc1cc(C(=O)CCl)c(C)n1CCc1ccc(Cl)cc1
active
